- Test system: MALME-3M melanoma
- Protocol text: NCI tumour cell line growth inhibition, 48 h; in the data active means GI50 below about 0.43 µM; inactive means the rest
Labels: active, inactive

>>> class_name("COc1ccc(-c2cc(-c3ccc(Nc4nc(Nc5ccc(Cl)cc5)nc(Nc5ccc(Cl)cc5)n4)cc3)no2)cc1")
"inactive"
>>> class_name("CCCCCCN(CCCCCC)C(=N)c1ccnc2ccccc12")
"inactive"
>>> class_name("CCC1CCc2nc3sc(C(=O)Nc4ccccc4F)c(N)c3cc2C1 (stereo not given)")
"inactive"
>>> class_name("CS(=O)(=O)c1ccc(N/N=C/c2c(-c3ccc(S(C)(=O)=O)cc3)[nH]c3ccc(F)cc23)cc1")
"inactive"
>>> class_name("C/C(=C\\c1ccn(-c2ccc(N)c(C(F)(F)F)c2)n1)[C@@H]1C[C@@H]2O[C@]2(C)CCC[C@H](C)[C@H](O)[C@@H](C)C(=O)C(C)(C)[C@@H](O)CC(=O)O1")
"active"

====

Measured TGI, listed per entry.
- Tested on: NCI-H460 lung
- Protocol text: NCI tumour cell line growth inhibition, 48 h
Property: TGI

>>> result("Cc1cc(Cl)ccc1Nc1sc(C(=O)c2cc3cc(Cl)ccc3o2)c(N)c1C#N")
"> 64.3 µM"
>>> result("O=C(O)CN1CCNCCN(CC(=O)O)CC1")
"> 64.4 µM"
>>> result("O=C(OCc1ccccc1)N1CCNCCNCC1")
"> 100 µM"
>>> result("CC(C)(C)CN1[C@@H]2CCCC[C@H]2N(CC(C)(C)C)P1(=O)Cc1ccccc1")
"28.1 µM"
>>> result("CC1(C)C(O)c2ccccc2OC1N1CCN(C2Oc3ccccc3C(O)C2(C)C)CC1 (stereo not given)")
"> 100 µM"
>>> result("CNC(=O)Nc1cc2c3c(c1)CCCN3CCC2")
"> 10 µM"
>>> result("CC(C)[Si](OC12CCC(CC1O)CC2C(=O)O)(C(C)C)C(C)C (stereo not given)")
"20.2 µM"
>>> result("C[C@]12CC[C@@H]3c4ccc(OC(=O)c5ccccc5)cc4CC[C@H]3[C@@H]1CCC2OC(=O)c1cccc2c(=O)c3ccccc3[nH]c12 (stereo not given in full)")
"32.2 µM"
>>> result("O=C(O)C(Cc1ccc(O)cn1)NC(=O)C(F)(F)F (stereo not given)")
"> 100 µM"
>>> result("O=C1CC2[C@@H](N3CCCC3)CCC(N1Cc1ccccc1)C2(O)O (stereo not given in full)")
"> 100 µM"

====

- System: A549 NSCLC
- Protocol text: NCI tumour cell line growth inhibition, 48 h
Measured TGI, listed per entry.
Property: TGI

>>> result("CC1(C)C(O)c2ccccc2OC1N1CCN(C2Oc3ccccc3C(O)C2(C)C)CC1 (stereo unspecified)")
"> 100 µM"
>>> result("COC(=O)c1cc(C)ccc1/C=C1\\Cc2cc(C)c(C)cc2C1=O")
"> 100 µM"
>>> result("COc1ccccc1C1C2=C(COC2=O)OC(C)(C)Oc2cc3c(cc21)OCO3 (stereo unspecified)")
"> 100 µM"
>>> result("C=C(C)C1CC=C(C(=O)O)CC1 (stereo unspecified)")
"3470 µM"
>>> result("O=c1c2cccnc2[nH]c2ccc3scnc3c12")
"> 10 µM"
>>> result("COC(=O)c1cc(C#N)[nH]c1-c1ccsc1")
"> 100 µM"
>>> result("COC(=O)C1=CC(O)CCC1c1ccc(OC)cc1 (stereo unspecified)")
"> 100 µM"
>>> result("O=C(O)c1ccc(Nc2ccnc3cc(Cl)ccc23)cc1O")
"> 100 µM"
>>> result("C[C@]12CCC3c4ccc(OC(=O)c5ccccc5)cc4CC[C@H]3C1CC[C@@H]2OC(=O)C12OC1CCC2=O (stereo partly specified)")
"10.3 µM"
>>> result("Cc1cc(Cl)ccc1Nc1sc(C(=O)c2cc3cc(Cl)ccc3o2)c(N)c1C#N")
"> 54.7 µM"
>>> result("O=C(O)C1C2C=CC(O2)C1C(=O)Nc1ccccc1 (stereo unspecified)")
"> 100 µM"

====

- System: MCF7 breast
- Protocol text: NCI tumour cell line growth inhibition, 48 h
Measured TGI, listed per entry.
Property: TGI

>>> result("COc1cc(-c2c[nH]c3ccccc23)nc(-c2c[nH]c3ccccc23)n1")
"14.9 µM"
>>> result("C=C(Cl)C(C)(Cl)CCC(Cl)C(C)(C)Cl (stereo unspecified)")
"> 100 µM"
>>> result("O=c1[nH]cnc2c(C3OC(CO)C(O)C3O)[nH]nc12 (stereo unspecified)")
"> 100 µM"
>>> result("Cc1c(O)c(OC2OC(CO)C(O)C(O)C2O)cc2c1CC[C@@H]1C2(C)C(=O)C[C@]2(C)[C@@H]([C@@](C)(O)C(O)/C=C/C(C)(C)O)[C@H](O)C[C@@]12C (stereo partly specified)")
"> 100 µM"
>>> result("COC(=O)[C@@H]1O[C@]12C(CO[Si](C)(C)C(C)(C)C)OC(n1ccc(=O)[nH]c1=O)C2O[Si](C)(C)C(C)(C)C (stereo partly specified)")
"37.2 µM"
>>> result("CCCCCCCCCCCCCOC(=O)c1c(C)[nH]c(/C=C2\\N=C(c3ccc[nH]3)C=C2OC)c1C")
"> 100 µM"
>>> result("O=C(OCc1ccccc1)N1CCNCCNCC1")
"> 100 µM"
>>> result("O=C1C(=O)c2cc([N+](=O)[O-])ccc2-c2ccccc21")
"3.64 µM"
>>> result("N=c1ccn2c(n1)OC1C(OP(=O)(O)O)C(CO)OC12 (stereo unspecified)")
"> 100 µM"
>>> result("Cn1c(=O)n(-c2c3ccccc3c(Cl)c3ccccc23)n(C(C)(C)C)c1=O")
"> 100 µM"
>>> result("O=S(=O)(O)c1cc(S(=O)(=O)O)c2c(N=Nc3cccc4ccccc34)c(O)ccc2c1")
"> 100 µM"

====

- Test system: CAKI-1 renal
- Protocol text: NCI tumour cell line growth inhibition, 48 h
Property: TGI

>>> result("CC(=O)O[C@H]1CC[C@H]2[C@@H]3CCc4cc(O)c(I)cc4[C@H]3CC[C@]12C")
"29.7 µM"
>>> result("O=C(CCl)N1CCCCC1C1(c2cc3ccccc3[nH]2)OCCO1 (stereo not drawn)")
"1.86 µM"
>>> result("CCOC(=O)c1sc2nc(SC)nc(Nc3ccc4c(c3)OCCCO4)c2c1N")
"> 100 µM"
>>> result("CC1=CC2=C(OCO1)C(=O)c1ccccc1C2=O")
"> 94 µM"
>>> result("CN1CCN(C(=O)c2ccc(NC(=O)Nc3ccc(N(C)c4ccnc(Nc5ccc(CS(C)(=O)=O)cc5)n4)cc3)cc2)CC1")
"> 25 µM"
>>> result("O=C1CC2[C@@H](N3CCCC3)CCC(N1Cc1ccccc1)C2(O)O (stereo partly drawn)")
"> 100 µM"
>>> result("CC(C#N)c1cn(S(=O)(=O)c2ccccc2)c2ccccc12 (stereo not drawn)")
"> 100 µM"
>>> result("O=C(O)C(Cc1cccs1)NC(=O)C(F)(F)F (stereo not drawn)")
"> 100 µM"

====

- Tested on: SR leukemia
- Protocol text: NCI tumour cell line growth inhibition, 48 h
Property: TGI

>>> result("CC(=O)c1ccc(-c2oc(-c3ccccc3)cc2-c2ccc3c(c2)OCO3)s1")
"> 100 µM"
>>> result("COC(=O)/C=C\\c1ccc2c(c1)CC1(C2)Cc2ccc(/C=C/C(=O)OC)cc2C1 (centres undefined)")
"> 31.6 µM"
>>> result("CCCCOC(=O)CN1C(=O)c2ccccc2C1=O")
"> 100 µM"
>>> result("O=C(O)C(Cc1ccc(O)cn1)NC(=O)C(F)(F)F (centres undefined)")
"> 100 µM"

====

- Test system: A498 renal
- Protocol text: NCI tumour cell line growth inhibition, 48 h
Measured TGI, listed per entry.
Property: TGI

>>> result("CC(=O)O[C@H](C[C@H](C(C)C)N(C)C(=O)[C@@H](NC(=O)[C@H]1CCCCN1C)C(C)C)c1nc(C(=O)N[C@@H](Cc2ccccc2)C[C@H](C)C(=O)O)c(C)s1")
"< 0.0025 µM"
>>> result("CC[C@H](C)c1occ2c(O)c(C(=O)O)c(=O)cc-2c1C")
"93.5 µM"
>>> result("Cc1ccc2c(c1)C(=O)/C(=C1/CCc3ccc(C)cc31)C2")
"> 100 µM"
>>> result("N#CN=Nc1cc(Cl)c(N=NC#N)cc1Cl")
"> 100 µM"
>>> result("CC(=O)c1ccc(-c2oc(-c3ccccc3)cc2-c2ccc3c(c2)OCO3)s1")
"> 100 µM"
>>> result("CC(=O)OCc1nc(C#N)c(N)o1")
"> 100 µM"
>>> result("COc1cc2[nH]c(C(=O)c3cc(OC)c(OC)c(OC)c3)c(N)c2cc1C#CCO")
"2.14 µM"
>>> result("CCCCCCCCCOC(=S)NC")
"48.8 µM"
>>> result("O=C(O)C(=O)Cc1ccc2c(c1)OCO2")
"> 100 µM"
>>> result("CCN1C(C)=NC2C(=O)c3ccccc3C(=O)C21 (stereo not drawn)")
"> 100 µM"
>>> result("CC1(C)S[C@@H]2[C@H](NC(=O)CCC[C@@H](N)C(=O)O)C(=O)N2[C@H]1C(=O)O")
"> 50 µM"
>>> result("COc1ccccc1C1C2=C(COC2=O)OC(C)(C)Oc2cc3c(cc21)OCO3 (stereo not drawn)")
"24.7 µM"
>>> result("CC1CC(N)=Nc2ccccc2N1Cc1ccccc1 (stereo not drawn)")
"23.3 µM"
>>> result("COc1ccc(C)c2c1N[C@](C)([C@]1(C)Nc3c(OC)ccc(C)c3C1=O)C2=O")
"> 100 µM"
>>> result("CO/C(=N/N1CC1C(F)(F)F)c1ccncc1 (stereo not drawn)")
"> 100 µM"
>>> result("COC(=O)C1=CC(O)CCC1c1ccc(OC)cc1 (stereo not drawn)")
"> 100 µM"
>>> result("N=c1ccn2c(n1)OC1C(OP(=O)(O)O)C(CO)OC12 (stereo not drawn)")
"> 100 µM"
>>> result("CCCCCCCCCCCCCOC(=O)c1c(C)[nH]c(/C=C2\\N=C(c3ccc[nH]3)C=C2OC)c1C")
"10.8 µM"
>>> result("O=C1C2CC3C(CC2C(=O)[N]1[Sn]([c]1ccccc1)([c]1ccccc1)[c]1ccccc1)C1(Cl)C(Cl)=C(Cl)C3(Cl)C1(Cl)Cl (stereo not drawn)")
"0.276 µM"
>>> result("N=c1nc(N)c2cc3c(N)nc(=N)c3cc12")
"> 90.6 µM"
>>> result("COc1cc(-c2c[nH]c3ccccc23)nc(-c2c[nH]c3ccccc23)n1")
"6.58 µM"
>>> result("Cn1c(=O)n(-c2c3ccccc3c(Cl)c3ccccc23)n(C(C)(C)C)c1=O")
"> 100 µM"
>>> result("O=C(O)C(Cc1ccc(O)cn1)NC(=O)C(F)(F)F (stereo not drawn)")
"> 100 µM"
